Data provenance is paper PMC8434889.

Answer each item with its documented pEC50.
target: SARS-Cov2 spike glycoprotein (Severe acute respiratory syndrome coronavirus 2); assay: cell-based
Reminder that pEC50 is minus the log10 of a molar concentration.

Name the reported pEC50 value associated with the compound CCN(CCCC(C)Nc1ccnc2cc(Cl)ccc12)CCNC(=O)C(F)(F)C1CCN(CCOCCOC)CC1 (centres unmarked)
5.26

Moving on to CCN(CCCC(C)Nc1ccnc2cc(Cl)ccc12)CCNC12CC(N)(C1)C2 (centres unmarked)
4.39

Moving on to CCN(CCCC(C)Nc1ccnc2cc(Cl)ccc12)CCNC(=O)C(F)(F)C1CCNCC1 (centres unmarked)
4.50

Moving on to CCN(CCCC(C)Nc1ccnc2cc(Cl)ccc12)CCNC(=O)CCOCCOCCOCCOCCOCC(=O)Nc1ccc2c(c1)OC(F)(F)O2 (centres unmarked)
4.69

Moving on to CCN(CCCC(C)Nc1ccnc2cc(Cl)ccc12)CCNC(=O)C(F)(F)C1CCN(C(=O)C2OC(OC)C3OC(C)(C)OC23)CC1 (centres unmarked)
4.60

Moving on to CCN(CCCC(C)Nc1ccnc2cc(Cl)ccc12)CCNC(=O)C(F)(F)C1CCN(CC(O)C(F)(F)F)CC1 (centres unmarked)
4.48

###

test system: Huh7 cell; conditions: read-out: Huh7 cell CC50; MTT, 2 days
Quantity Kind: CC50 (µM)
Only the number, expressed in µM, is required.

Name the reported CC50 value associated with the molecule CCN(CCCC(C)Nc1ccnc2cc(Cl)ccc12)CCNC(=O)C(F)(F)C1CCN(CCOCCOC)CC1 (stereo not drawn)
5.75

Moving on to CCN(CCCC(C)Nc1ccnc2cc(Cl)ccc12)CCNC(=O)C(F)(F)C1CCN(CC(O)C(F)(F)F)CC1 (stereo not drawn)
16.7

Moving on to CCN(CCCC(C)Nc1ccnc2cc(Cl)ccc12)CCNC(=O)C(F)(F)C1CCN(C(=O)C2OC(OC)C3OC(C)(C)OC23)CC1 (stereo not drawn)
16.9

###

Answer each item with its documented log10(IC50).
tested on: IL-6; assay: LPS-induced cytokine production in splenocytes, IL-6; type: cell-based; conditions: Mus musculus, Splenocyte, 48 h, read-out: IC50 IL-6
Lab note - IC50 converted to log10 from values in nM.

Name the reported log10(IC50) value associated with the compound CCN(CCCC(C)Nc1ccnc2cc(Cl)ccc12)CCNC(=O)C(F)(F)C1CCN(CCOCCOC)CC1 (stereo not drawn)
3.17

Moving on to CCN(CC)CCCC(C)Nc1ccnc2cc(Cl)ccc12 (stereo not drawn) [Compound 1, chloroquine, reference compound]
2.91

Moving on to CCN(CCO)CCCC(C)Nc1ccnc2cc(Cl)ccc12 (stereo not drawn) [Compound 2, hydroxychloroquine, reference compound]
2.93

Moving on to CCN(CCCC(C)Nc1ccnc2cc(Cl)ccc12)CCNC(=O)C(F)(F)C1CCN(CC(O)C(F)(F)F)CC1 (stereo not drawn)
1.00

Moving on to CCN(CCCC(C)Nc1ccnc2cc(Cl)ccc12)CCNC(=O)C(F)(F)C1CCN(C(=O)C2OC(OC)C3OC(C)(C)OC23)CC1 (stereo not drawn)
2.23

Moving on to CCN(CCCC(C)Nc1ccnc2cc(Cl)ccc12)CCNC(=O)CCOCCOCCOCCOCCOCC(=O)Nc1ccc2c(c1)OC(F)(F)O2 (stereo not drawn)
3.18

###

test system: LPS-induced B cell proliferation of murine splenocytes; assay: LPS-induced B-cell proliferation; format: cell-based, mouse; settings: Mus musculus, B-cell, 48 h, read-out: LPS-induced B-cell proliferation IC50
Answer each item with its documented IC50.
Only the number, expressed in nM, is required.

Name the reported IC50 value associated with the compound CCN(CCCC(C)Nc1ccnc2cc(Cl)ccc12)CCNC(=O)C(F)(F)C1CCNCC1 (stereo not drawn)
28300

Moving on to CCN(CCCC(C)Nc1ccnc2cc(Cl)ccc12)CCNC(=O)C(F)(F)C1CCN(CCOCCOC)CC1 (stereo not drawn)
1420

Moving on to CCN(CCCC(C)Nc1ccnc2cc(Cl)ccc12)CCNC(=O)C(F)(F)C1CCN(CC(O)C(F)(F)F)CC1 (stereo not drawn)
1070

###

tested on: IL-17; test: Con A-induced cytokine production in splenocytes, IL-17; format: cell-based; conditions: Mus musculus, Splenocyte, 48 h, read-out: IC50 IL-17
Answer each item with its documented IC50.
Only the number, expressed in nM, is required.

Name the reported IC50 value associated with the compound CCN(CCCC(C)Nc1ccnc2cc(Cl)ccc12)CCNC(=O)C(F)(F)C1CCN(CC(O)C(F)(F)F)CC1 (stereo not drawn)
1040

Moving on to CCN(CCO)CCCC(C)Nc1ccnc2cc(Cl)ccc12 (stereo not drawn) [Compound 2, hydroxychloroquine, reference compound]
620

Moving on to CCN(CCCC(C)Nc1ccnc2cc(Cl)ccc12)CCNC(=O)C(F)(F)C1CCN(C(=O)C2OC(OC)C3OC(C)(C)OC23)CC1 (stereo not drawn)
170

###

test: Cytotoxicity in RAW264.7 cell; format: cell-based; details: mouse, RAW264.7 macrophage cells
Quantity Kind: CC50 at 48 h (µM)
Only the number, expressed in µM, is required.

Name the reported CC50 at 48 h value associated with the compound CCN(CC)CCCC(C)Nc1ccnc2cc(Cl)ccc12 (stereo not drawn) [Compound 1, chloroquine, reference compound]
21.9

Moving on to CCN(CCCC(C)Nc1ccnc2cc(Cl)ccc12)CCNC(=O)C(F)(F)C1CCN(C(=O)C2OC(OC)C3OC(C)(C)OC23)CC1 (stereo not drawn) [Compound 11]
47.7

Moving on to CCN(CCCC(C)Nc1ccnc2cc(Cl)ccc12)CCNC(=O)C(F)(F)C1CCN(CC(O)C(F)(F)F)CC1 (stereo not drawn) [Compound 9]
48.6
